Each recorded value in this set is attributed to ChEMBL document CHEMBL1201862.

Heads up, these compounds all have AC50 values measured for Cytochrome P450 2D6 (Homo sapiens, UniProt P10635).

Study these solved cases before continuing.
INSERT INTO assay_data (compound, test_result) VALUES
  ('COc1cccc(-c2cncnc2Nc2ccc(F)cc2)c1', '39.8 µM (inconclusive)'),
  ('O=[N+]([O-])c1cc2c(cc1/C=N/c1ccccc1)OCO2', '25.1 µM (inconclusive)'),
  ('COC(=O)[C@@]1(Cc2ccc(F)cc2)[C@H]2c3cc(C(=O)N(C)C)n(Cc4ccccc4)c3C[C@H]2CN1C(=O)c1ccccc1', '20 µM (inconclusive)');

Now, please, on to the next compound.
Ask: // returns reported AC50 for input C=CCNc1nc(SCC=C)nc2ccsc12
Result: 15.8 µM (inconclusive)

* * *

target: UniProt Q12809; details: Potency
Sequence (Q12809 whole entry): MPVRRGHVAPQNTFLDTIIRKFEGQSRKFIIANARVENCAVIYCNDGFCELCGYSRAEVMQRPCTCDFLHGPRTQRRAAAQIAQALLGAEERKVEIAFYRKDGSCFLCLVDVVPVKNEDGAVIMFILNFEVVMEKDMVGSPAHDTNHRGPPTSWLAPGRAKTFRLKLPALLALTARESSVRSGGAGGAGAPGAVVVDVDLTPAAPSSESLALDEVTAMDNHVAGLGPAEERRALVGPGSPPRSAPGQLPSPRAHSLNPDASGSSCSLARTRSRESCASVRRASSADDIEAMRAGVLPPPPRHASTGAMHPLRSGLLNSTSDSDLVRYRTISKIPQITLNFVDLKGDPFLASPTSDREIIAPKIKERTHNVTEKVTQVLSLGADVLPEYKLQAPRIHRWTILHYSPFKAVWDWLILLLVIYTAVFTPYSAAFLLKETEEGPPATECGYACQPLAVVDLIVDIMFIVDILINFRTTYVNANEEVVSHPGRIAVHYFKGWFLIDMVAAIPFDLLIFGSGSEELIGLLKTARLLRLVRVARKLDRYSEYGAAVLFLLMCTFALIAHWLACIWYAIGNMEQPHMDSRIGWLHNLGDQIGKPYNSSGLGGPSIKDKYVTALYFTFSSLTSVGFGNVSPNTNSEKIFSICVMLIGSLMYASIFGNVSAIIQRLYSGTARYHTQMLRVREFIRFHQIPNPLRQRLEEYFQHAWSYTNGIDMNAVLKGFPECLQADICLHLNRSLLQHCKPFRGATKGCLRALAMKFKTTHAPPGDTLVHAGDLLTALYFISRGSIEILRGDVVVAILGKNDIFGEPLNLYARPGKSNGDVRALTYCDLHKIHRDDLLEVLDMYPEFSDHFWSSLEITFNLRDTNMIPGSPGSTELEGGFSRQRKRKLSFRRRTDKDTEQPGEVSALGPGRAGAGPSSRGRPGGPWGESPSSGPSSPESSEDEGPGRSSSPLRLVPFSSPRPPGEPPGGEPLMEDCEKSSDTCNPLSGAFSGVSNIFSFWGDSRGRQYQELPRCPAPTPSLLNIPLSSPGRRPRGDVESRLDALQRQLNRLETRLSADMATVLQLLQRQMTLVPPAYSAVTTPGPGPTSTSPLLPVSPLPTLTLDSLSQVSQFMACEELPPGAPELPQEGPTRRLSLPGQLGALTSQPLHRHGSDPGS
Structures can show the parent of a compound that is named as a salt.
Quantity Name: AC50

Study these solved cases before continuing.
INSERT INTO measurements (molecule, test_result) VALUES
  ('CCOC(=O)C1OC1c1ccccc1 (centres undefined)', '35.5 µM (inconclusive)'),
  ('COC(=O)[C@H]1[C@H]2C[C@H]3c4[nH]c5ccccc5c4CCN3C[C@H]2CC[C@@H]1O [RAUWOLSCINE HYDROCHLORIDE]', '25.1 µM (inconclusive)'),
  ('[H][C@]12[N@]3CC=C[C@@]1(CC)[C@@H](OC(C)=O)[C@](O)(C(=O)OC)C1N(C)c4cc(OC)c([C@@]5(C(=O)OC)CC6CN(CCc7c5[nH]c5ccccc75)CC(O)(CC)C6)cc4[C@@]12CC3 (some centres undefined)', '35.5 µM (inconclusive)');

Ask: // returns reported AC50 for input C(=NC1CCCCC1)=NC1CCCCC1 [DICYCLOHEXYLCARBODIIMIDE]
Result: 70.8 µM (inconclusive)

* * *

experiment: cells; format: functional, cell-based
Active and inactive are the calls of the source.
Quantity Name: EC50

Study these solved cases before continuing.
INSERT INTO assay_data (smiles_str, test_result) VALUES
  ('COc1cc2ncnc(NCc3cccs3)c2cc1OC', '> 350 µM (not active)'),
  ('COc1ccc2oc(C(=O)OCC(=O)Nc3ccccc3OC)c(C)c2c1', '> 350 µM (not active)'),
  ('O=C(N/N=C/c1sc2ccccc2c1O)c1cccc2ccccc12', '12.5 µM (active)');

Now, please, on to the next compound.
Ask: // returns reported EC50 for input C/C(=N\Nc1ccc2nncn2n1)c1ccccn1
Result: 6.99 µM (active)

* * *

The following molecules are shown together with reported AC50 values.
target: Cytochrome P450 2C9 (Homo sapiens)
Sequence (P11712 whole entry): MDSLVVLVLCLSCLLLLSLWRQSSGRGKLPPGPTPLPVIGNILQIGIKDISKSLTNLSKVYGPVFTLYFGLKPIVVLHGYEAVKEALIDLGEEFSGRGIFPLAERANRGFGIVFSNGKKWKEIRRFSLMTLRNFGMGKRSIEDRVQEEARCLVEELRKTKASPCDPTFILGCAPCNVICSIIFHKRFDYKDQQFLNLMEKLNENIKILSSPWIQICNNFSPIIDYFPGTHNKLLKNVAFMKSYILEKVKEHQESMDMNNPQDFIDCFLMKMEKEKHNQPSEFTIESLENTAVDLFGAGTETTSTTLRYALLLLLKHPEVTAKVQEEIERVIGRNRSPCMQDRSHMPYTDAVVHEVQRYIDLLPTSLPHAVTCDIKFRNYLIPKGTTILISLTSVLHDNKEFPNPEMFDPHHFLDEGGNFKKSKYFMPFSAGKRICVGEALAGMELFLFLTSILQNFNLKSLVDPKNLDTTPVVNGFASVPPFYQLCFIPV

INSERT INTO results (molecule, test_result) VALUES
  ('COc1cc(C(=O)OCC(=O)Nc2cc(C)on2)cc(OC)c1OC', '0.0447 µM (inconclusive)'),
  ('O=C(O)c1cc2cc(OCc3ccccc3)ccc2[nH]1', '25.1 µM (inconclusive)'),
  ('COC(=O)CN1C(=O)S/C(=C/c2ccc(N3CCCCC3)o2)C1=O', '5.62 µM (inconclusive)'),
  ('Nc1nc(S)nc2c1C1(CCCC1)Cc1ccccc1-2', '0.355 µM (inconclusive)'),
  ('CCC(C)(C)n1nnnc1C(c1cc2cc3c(cc2nc1O)OCO3)N1CCCCC1 (stereo unspecified)', '0.02 µM (inconclusive)'),
  ('CCCn1c(N)c(C(=O)CSc2nc(C)cs2)c(=O)n(C)c1=O', '28.2 µM (inconclusive)'),
  ('O=[N+]([O-])c1c(NCCO)cc(Sc2nc3ccccc3s2)c2nonc12', '0.631 µM (inconclusive)'),
  ('CC(C)NC(=O)N1CC[C@@]2(CCCN(S(C)(=O)=O)C2)C1', '25.1 µM (inconclusive)');

Ask: Report AC50 for COc1ccc2[nH]cc(CCNc3ccnc(-c4ccccc4Cl)n3)c2c1 tested on Cytochrome P450 2C9 (Homo sapiens).
Result: 1 µM (inconclusive)

Ask: Report AC50 for CCNc1ncc2nc(-c3ccccc3)c(=O)n(CCOC)c2n1 tested on Cytochrome P450 2C9 (Homo sapiens).
Result: 20 µM (inconclusive)

Ask: Report AC50 for CCCC[N+]12CCC(CC1)C(C(=O)c1cccs1)C2 (stereo unspecified) tested on Cytochrome P450 2C9 (Homo sapiens).
Result: 10 µM (inconclusive)

Ask: Report AC50 for Clc1ccccc1-c1nc(NCc2cccs2)c2ccccc2n1 tested on Cytochrome P450 2C9 (Homo sapiens).
Result: 0.794 µM (inconclusive)

Ask: Report AC50 for N#CCCn1c(=O)c(-c2cccs2)nc2cnc(OCc3ccccc3)nc21 tested on Cytochrome P450 2C9 (Homo sapiens).
Result: 1.58 µM (inconclusive)

Ask: Report AC50 for Cc1oc(C(C)(C)C)cc1C(=O)Nc1cccc(/C=C/C(=O)O)c1 tested on Cytochrome P450 2C9 (Homo sapiens).
Result: 4.47 µM (inconclusive)

Ask: Report AC50 for Clc1ccc(CCNc2nc3ccccc3s2)cc1 tested on Cytochrome P450 2C9 (Homo sapiens).
Result: 12.6 µM (inconclusive)

Ask: Report AC50 for O=[N+]([O-])c1cc2c(cc1/C=N/c1ccccc1)OCO2 tested on Cytochrome P450 2C9 (Homo sapiens).
Result: 10 µM (inconclusive)

Ask: Report AC50 for CCc1cc2c(=O)c(-c3nc4ccccc4[nH]3)coc2cc1OC(=O)N1CCOCC1 tested on Cytochrome P450 2C9 (Homo sapiens).
Result: 8.91 µM (inconclusive)

Ask: Report AC50 for COCCCNC(=O)c1c(NC(=O)c2cccs2)sc2c1CCCC2 tested on Cytochrome P450 2C9 (Homo sapiens).
Result: 0.562 µM (inconclusive)

Ask: Report AC50 for NCCCCCc1nnc(SCc2ccc(Cl)cc2Cl)o1 tested on Cytochrome P450 2C9 (Homo sapiens).
Result: 14.1 µM (inconclusive)

Ask: Report AC50 for CCOCCCn1cnc2c3ccc(OC)cc3nc-2c1O tested on Cytochrome P450 2C9 (Homo sapiens).
Result: 39.8 µM (inconclusive)

Ask: Report AC50 for Cc1cc(C)c(S(=O)(=O)N2CCN(c3ccc([N+](=O)[O-])c(NCc4ccco4)c3)CC2)c(C)c1 tested on Cytochrome P450 2C9 (Homo sapiens).
Result: 0.562 µM (inconclusive)

* * *

molecular target: Luciferin 4-monooxygenase (Photinus pyralis); experiment: inhibition of purified Photinus pyralis luciferase – biochemical, luminescence, dose response (AID 1891)
Sequence (P08659 whole entry): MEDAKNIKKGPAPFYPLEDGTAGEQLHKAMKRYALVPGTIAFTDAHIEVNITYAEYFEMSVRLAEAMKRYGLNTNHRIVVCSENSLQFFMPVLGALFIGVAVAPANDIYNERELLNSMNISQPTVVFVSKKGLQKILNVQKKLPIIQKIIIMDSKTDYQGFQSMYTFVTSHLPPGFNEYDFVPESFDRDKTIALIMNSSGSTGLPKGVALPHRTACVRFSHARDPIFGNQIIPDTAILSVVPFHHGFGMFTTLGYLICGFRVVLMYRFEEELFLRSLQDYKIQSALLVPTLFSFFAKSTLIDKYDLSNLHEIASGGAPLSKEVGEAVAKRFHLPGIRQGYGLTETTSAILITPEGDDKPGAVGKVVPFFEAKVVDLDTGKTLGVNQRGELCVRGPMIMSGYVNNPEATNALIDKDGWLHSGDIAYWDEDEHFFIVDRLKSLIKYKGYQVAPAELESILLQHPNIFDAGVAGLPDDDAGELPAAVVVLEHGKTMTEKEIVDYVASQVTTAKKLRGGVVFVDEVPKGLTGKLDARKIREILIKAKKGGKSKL
Active and inactive are the calls of the source.
Quantity Name: EC50

Study these solved cases before continuing.
INSERT INTO results (compound, quantity_name, test_result) VALUES
  ('Clc1ccccc1-c1nc(N/N=C/c2cccnc2)c2ccccc2n1', 'EC50', '> 112 µM (not active)'),
  ('Oc1c(N=Nc2ccccc2)sc2ccccc12', 'EC50', '1.26 µM (active)'),
  ('Cc1ccc(CN(C(=O)c2csnn2)C(C(=O)NC2CCCC2)c2ccco2)cc1 (configuration not stated)', 'EC50', '> 112 µM (not active)'),
  ('O=C(CN1C(=O)NC2(CCCCCC2)C1=O)c1ccccc1', 'EC50', '> 112 µM (not active)'),
  ('COc1ccc(NC(=O)c2nc3nc(C)cc(C(F)F)n3n2)cc1OC', 'EC50', '18.9 µM (active)'),
  ('O=c1oc2ccccc2c(O)c1/C=N/c1ccccn1', 'EC50', '> 112 µM (not active)'),
  ('COc1ccc(OC)c(NC(=O)CS(=O)(=O)Cc2nc(-c3ccccc3C)oc2C)c1', 'EC50', '> 112 µM (not active)'),
  ('Cc1cc(C)c2cc(CN(Cc3ccco3)C(=O)NCc3ccccc3)c(O)nc2c1', 'EC50', '> 112 µM (not active)');

Ask: // returns reported EC50 for input CCOC(=O)C1CCN(C(=O)CCc2nnc3ccc(NCc4ccco4)nn23)CC1
Result: > 112 µM (not active)

Ask: // returns reported EC50 for input CC(=O)c1c(C)nc2nonc2c1N
Result: > 112 µM (not active)

Ask: // returns reported EC50 for input O=C(NC(=O)c1ccccc1)Nc1ccccn1
Result: 4.17 µM (active)

Ask: // returns reported EC50 for input CCOC(=O)c1c(NC(=O)/C=C/c2ccc3c(c2)OCO3)sc(C)c1CC
Result: > 112 µM (not active)

* * *

target: DNA repair protein RAD52 homolog (Homo sapiens); assay type: functional, biochemical
Sequence (P43351 whole entry): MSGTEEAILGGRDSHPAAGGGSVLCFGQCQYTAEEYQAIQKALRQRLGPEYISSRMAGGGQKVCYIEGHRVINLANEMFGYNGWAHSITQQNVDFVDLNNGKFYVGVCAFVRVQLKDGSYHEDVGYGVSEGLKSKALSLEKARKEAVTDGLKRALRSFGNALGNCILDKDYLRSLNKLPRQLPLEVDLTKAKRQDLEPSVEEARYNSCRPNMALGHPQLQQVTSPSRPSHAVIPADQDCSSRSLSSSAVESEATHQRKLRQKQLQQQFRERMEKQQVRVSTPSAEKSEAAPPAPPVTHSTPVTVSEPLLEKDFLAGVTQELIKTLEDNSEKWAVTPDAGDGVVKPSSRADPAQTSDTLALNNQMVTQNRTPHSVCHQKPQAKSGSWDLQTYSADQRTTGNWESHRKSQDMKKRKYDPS
Activity calls are given as the source filed them.
The following molecules are shown together with reported AC50 values.

INSERT INTO results (smiles_str, test_result) VALUES
  ('CN(C)CCCN1C(=O)c2cccc3cccc(c23)C1=O', '16.4 µM (active)'),
  ('CCCCCCCCCCCCn1ccc(=N)cc1', '14.8 µM (active)'),
  ('COc1cc(/C=C2\SC(=O)N(CCN)C2=O)ccc1OS(=O)(=O)c1cc(C)ccc1C', '5.08 µM (active)'),
  ('COc1ccc(OC)c2sc(N(CCN(C)C)C(=O)c3ccc4ccccc4c3)nc12', '10.7 µM (active)'),
  ('CC[N+](C)(CC)CCCCOc1ccc2c(c1)C(=O)c1cc(OCCCC[N+](C)(CC)CC)ccc1-2', '0.574 µM (active)');

Ask: Report AC50 for Cc1cc(C)c2nc(N(CCCN(C)C)C(=O)c3ccc4c(c3)CCCC4)sc2c1 tested on DNA repair protein RAD52 homolog (Homo sapiens).
Result: 13.4 µM (active)

Ask: Report AC50 for CN(C)CCCNC(=O)C(=O)Nc1cc2c3c(c1)CC(=O)N3CCC2 tested on DNA repair protein RAD52 homolog (Homo sapiens).
Result: 15.4 µM (active)
